Record form. Attribute: pIC50. Fill in for each entry.
biological target: human JAK3 (a.a. 781-1124) (Homo sapiens); construct: JAK3 (a.a. 781-1124); His tag (N); made in house; host or cells: insect cells (baculovirus); assay: In vitro JAK kinase assay (HTRF, phosphorylation of a biotinylated peptide), JAK3; format: biochemical; details: Table B1
Sequence (P52333 781-1124): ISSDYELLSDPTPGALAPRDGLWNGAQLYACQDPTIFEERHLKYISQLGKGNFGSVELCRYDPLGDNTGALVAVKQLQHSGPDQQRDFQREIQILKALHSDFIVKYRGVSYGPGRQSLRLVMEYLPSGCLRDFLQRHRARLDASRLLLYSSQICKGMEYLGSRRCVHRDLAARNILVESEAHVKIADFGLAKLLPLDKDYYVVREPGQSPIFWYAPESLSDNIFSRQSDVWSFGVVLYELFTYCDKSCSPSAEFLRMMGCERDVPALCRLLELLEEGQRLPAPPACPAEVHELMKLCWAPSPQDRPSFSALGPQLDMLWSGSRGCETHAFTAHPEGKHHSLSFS
Where a name gives a salt, the structure may show the parent alone.
FYI, pIC50 means -log10 of a concentration in mol per litre.

Problem: Any idea what pIC50 was measured for Clc1ccc(CN2CCN(Cc3cc4cc(c3)Nc3nc(ncc3Cl)Nc3cccc(c3)CC4)CC2)cc1 [Example B199, tris(trifluoroacetate)] ?
Solution: 7.19

Problem: Suppose we examine the compound O=C(Nc1ccc2cc1CCc1cccc(c1)Nc1ncc(Cl)c(n1)N2)c1cccnc1 [Example B30, bis(trifluoroacetate)] ; what pIC50 value has been reported?
Solution: 8.54

Problem: Endpoint output: pIC50 of CCC(=O)Nc1ccc2cc1CCc1cccc(c1)Nc1ncc(Cl)c(n1)N2 [Example B54, trifluoroacetate] . Value?
Solution: 8.23

Problem: Give the measured pIC50 of Cc1noc(C)c1C(=O)Nc1ccc2cc1CCc1cccc(c1)Nc1ncc(Cl)c(n1)N2 [Example B40, trifluoroacetate] .
Solution: 8.44

Problem: Please report the recorded pIC50 for O=C(Nc1cc2cc(c1)Nc1nc(ncc1Cl)Nc1cccc(c1)CC2)Nc1ccccc1F [Example B213, trifluoroacetate] .
Solution: 6.74

Problem: Which pIC50 reading was recorded for the compound O=C(Cc1ccccc1)Nc1ccc2cc1CCc1cccc(c1)Nc1ncc(Cl)c(n1)N2 [Example B32, trifluoroacetate] ?
Solution: 8.26

Problem: Which value of pIC50 has been reported for O=S(=O)(Nc1ccc2cc1CCc1cccc(c1)Nc1ncc(Cl)c(n1)N2)c1cccc(C(F)(F)F)c1 [Example B163, trifluoroacetate] in the records?
Solution: 8.96

Problem: What value of pIC50 has been reported for the following compound? O=C(Nc1ccc2cc1CCc1cccc(c1)Nc1ncc(Cl)c(n1)N2)NC1CCNCC1 [Example B181, dihydrochloride]
Solution: 6.63

Problem: Recorded pIC50 for O=C(Nc1ccccc1CCl)Nc1ccc2cc1CCc1cccc(c1)Nc1ncc(Cl)c(n1)N2 [Example B108, trifluoroacetate] , please?
Solution: 7.64

Problem: Given CN1CCOc2cc(S(=O)(=O)Nc3ccc4cc3CCc3cccc(c3)Nc3ncc(Cl)c(n3)N4)ccc21 [Example B165, trifluoroacetate] , state its recorded pIC50.
Solution: 7.08

Problem: Record request: pIC50 value, item O=C(Nc1ccc2cc1CCc1cccc(c1)Nc1ncc(Cl)c(n1)N2)N[C@@H]1CCNC1 [Example B175, dihydrochloride]
Solution: 7.16

Problem: Record request: pIC50 value, item CCCS(=O)(=O)Nc1ccc2cc1CCc1cccc(c1)Nc1ncc(Cl)c(n1)N2 [Example B142, trifluoroacetate]
Solution: 8.34

Problem: Consider the compound shown here: O=C(Nc1ccc2cc1CCc1cccc(c1)Nc1ncc(Cl)c(n1)N2)c1ccsc1 [Example B62, trifluoroacetate] What is its recorded pIC50?
Solution: 8.32

Problem: What value of pIC50 has been reported for the following compound? CC(C)C(=O)Nc1ccc2cc1CCc1cccc(c1)Nc1ncc(Cl)c(n1)N2 [Example B55, trifluoroacetate]
Solution: 8.96

Problem: Need pIC50 of O=C(Nc1ccc2cc1CCc1cccc(c1)Nc1ncc(Cl)c(n1)N2)c1ccccc1 [Example B29, trifluoroacetate] , thanks.
Solution: 8.48

Problem: Query (compound): CC(=O)Nc1ccc(S(=O)(=O)Nc2ccc3cc2CCc2cccc(c2)Nc2ncc(Cl)c(n2)N3)cc1 [Example B161, trifluoroacetate] ; field requested: pIC50
Solution: 8.07

Problem: Which pIC50 value belongs to N#Cc1cccc(S(=O)(=O)Nc2ccc3cc2CCc2cccc(c2)Nc2ncc(Cl)c(n2)N3)c1 [Example B153, trifluoroacetate] ?
Solution: 9.32

Problem: Which pIC50 reading was recorded for the compound Clc1cnc2nc1Nc1ccc(CN[C@@H]3CCNC3)c(c1)CCc1cccc(c1)N2 [Example B222, tris(trifluoroacetate)] ?
Solution: 7.40

Problem: Value lookup for pIC50; key = Cc1ccc(Cl)cc1NC(=O)Nc1ccc2cc1CCc1cccc(c1)Nc1ncc(Cl)c(n1)N2 [Example B123, trifluoroacetate]
Solution: 6.96

Problem: // pIC50 lookup, key: COC(=O)c1ccc2cc1CCc1cccc(c1)Nc1ncc(Cl)c(n1)N2 [Example B22, trifluoroacetate]
Solution: 6.98

Problem: # input compound: Cc1csc(NC(=O)Nc2ccc3cc2CCc2cccc(c2)Nc2ncc(Cl)c(n2)N3)n1 ; wanted: its pIC50
Solution: 6.99

Problem: Query (compound): O=C(NCCN1CCCC1)Nc1ccc2cc1CCc1cccc(c1)Nc1ncc(Cl)c(n1)N2 [Example B255, bis(trifluoroacetate)] ; field requested: pIC50
Solution: 7.28

Problem: Dear colleague, I am looking for the recorded pIC50 of the following compound: COc1ccc(S(=O)(=O)Nc2ccc3cc2CCc2cccc(c2)Nc2ncc(Cl)c(n2)N3)cc1 [Example B156, trifluoroacetate]
Solution: 7.77

Problem: Look up pIC50: O=C(Nc1ccc2cc1CCc1cccc(c1)Nc1ncc(Cl)c(n1)N2)C1CC1 [Example B27, trifluoroacetate]
Solution: 8.07
